Hey, just so you know, these numbers are from patent US20140221286A1.

Biological target: hNaV1.3 (Homo sapiens)
Construct: (Vanderbilt University, Nashville, Tenn.)
Sequence (Q9NY46 1-1951 isoform Q9NY46-4): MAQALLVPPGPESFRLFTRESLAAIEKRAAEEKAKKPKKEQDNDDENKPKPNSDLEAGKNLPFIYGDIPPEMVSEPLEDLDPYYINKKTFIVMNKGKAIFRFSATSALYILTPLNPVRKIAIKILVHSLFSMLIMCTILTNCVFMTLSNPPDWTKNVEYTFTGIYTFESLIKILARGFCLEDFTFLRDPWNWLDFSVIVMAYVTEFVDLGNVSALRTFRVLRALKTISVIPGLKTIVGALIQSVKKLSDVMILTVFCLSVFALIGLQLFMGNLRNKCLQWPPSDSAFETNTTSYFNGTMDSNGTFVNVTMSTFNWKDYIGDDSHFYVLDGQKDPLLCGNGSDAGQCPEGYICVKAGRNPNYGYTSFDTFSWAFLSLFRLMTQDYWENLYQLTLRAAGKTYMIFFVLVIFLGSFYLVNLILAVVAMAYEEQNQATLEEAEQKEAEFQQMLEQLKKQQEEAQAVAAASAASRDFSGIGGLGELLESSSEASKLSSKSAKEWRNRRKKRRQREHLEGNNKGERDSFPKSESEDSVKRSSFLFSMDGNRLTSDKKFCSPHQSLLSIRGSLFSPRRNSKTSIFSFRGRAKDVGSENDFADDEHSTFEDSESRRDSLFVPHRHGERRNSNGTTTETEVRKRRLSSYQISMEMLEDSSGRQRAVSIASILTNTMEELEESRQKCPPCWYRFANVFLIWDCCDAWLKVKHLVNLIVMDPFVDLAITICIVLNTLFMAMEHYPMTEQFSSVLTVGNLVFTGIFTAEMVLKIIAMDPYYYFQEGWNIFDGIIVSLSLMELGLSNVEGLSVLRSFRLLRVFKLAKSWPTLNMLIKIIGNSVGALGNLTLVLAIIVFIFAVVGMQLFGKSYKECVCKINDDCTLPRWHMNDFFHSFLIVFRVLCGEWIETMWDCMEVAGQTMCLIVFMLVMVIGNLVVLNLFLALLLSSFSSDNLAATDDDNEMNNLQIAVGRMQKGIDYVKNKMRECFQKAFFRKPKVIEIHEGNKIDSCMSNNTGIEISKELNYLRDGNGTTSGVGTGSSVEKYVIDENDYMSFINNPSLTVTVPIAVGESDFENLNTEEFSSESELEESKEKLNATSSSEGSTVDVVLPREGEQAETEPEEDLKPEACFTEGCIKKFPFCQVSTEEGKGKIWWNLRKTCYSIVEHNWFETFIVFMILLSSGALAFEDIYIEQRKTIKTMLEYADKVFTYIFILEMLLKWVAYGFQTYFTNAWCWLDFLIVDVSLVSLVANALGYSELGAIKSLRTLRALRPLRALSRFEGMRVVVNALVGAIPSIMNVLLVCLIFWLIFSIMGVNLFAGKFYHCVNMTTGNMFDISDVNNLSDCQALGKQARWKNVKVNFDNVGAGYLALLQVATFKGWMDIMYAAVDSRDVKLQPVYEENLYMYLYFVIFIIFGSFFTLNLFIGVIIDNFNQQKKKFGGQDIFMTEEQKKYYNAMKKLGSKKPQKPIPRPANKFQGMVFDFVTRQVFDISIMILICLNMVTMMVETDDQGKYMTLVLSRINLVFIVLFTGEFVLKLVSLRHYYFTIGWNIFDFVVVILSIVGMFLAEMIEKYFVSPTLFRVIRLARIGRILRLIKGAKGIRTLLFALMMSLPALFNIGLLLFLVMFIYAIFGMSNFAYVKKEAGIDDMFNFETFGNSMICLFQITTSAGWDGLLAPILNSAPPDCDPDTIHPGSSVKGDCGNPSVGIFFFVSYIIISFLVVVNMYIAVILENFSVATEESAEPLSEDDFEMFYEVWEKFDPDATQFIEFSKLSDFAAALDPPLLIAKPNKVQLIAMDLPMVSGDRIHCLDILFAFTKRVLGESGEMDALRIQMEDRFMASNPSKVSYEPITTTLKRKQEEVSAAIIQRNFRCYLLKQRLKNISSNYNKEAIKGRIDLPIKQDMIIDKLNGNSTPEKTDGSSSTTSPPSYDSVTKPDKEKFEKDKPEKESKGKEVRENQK
Sequence (Q07699 19-218 partner): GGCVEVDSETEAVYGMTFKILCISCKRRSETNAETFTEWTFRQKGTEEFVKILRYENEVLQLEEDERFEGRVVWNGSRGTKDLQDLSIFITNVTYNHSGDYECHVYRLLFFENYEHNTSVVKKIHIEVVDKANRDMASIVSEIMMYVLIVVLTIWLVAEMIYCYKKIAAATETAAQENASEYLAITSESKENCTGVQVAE
Sequence (O60939 30-215 partner): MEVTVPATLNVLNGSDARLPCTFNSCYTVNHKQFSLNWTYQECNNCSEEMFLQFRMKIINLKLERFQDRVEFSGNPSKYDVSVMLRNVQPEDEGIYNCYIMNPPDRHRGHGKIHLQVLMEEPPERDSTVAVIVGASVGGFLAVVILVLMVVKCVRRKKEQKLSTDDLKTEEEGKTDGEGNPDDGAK
Assay: Voltage-dependent block (VDB) of hNaV1.3, QPatch whole-cell voltage-clamp in HEK-293 cells
Assay type: cell-based
Settings: 8 s prepulse to -55 mV; at a given concentration (not given)
Reported endpoint: hNav1.3 VDB % Inhibition (%)
Return type: number; implicit unit %.

Input: Reported hNav1.3 VDB % Inhibition for COCC(F)(F)c1nnc2ccc(-c3ccc(Oc4ccc(Cl)cc4)cc3)cn12 [F] : what is it?
Output: 2.32

Input: Reported hNav1.3 VDB % Inhibition for COc1ccccc1OCC(O)CN1CCN(CC(=O)Nc2c(C)cccc2C)CC1 (racemic) [Ranolazine] : what is it?
Output: 11.21

Input: Reported hNav1.3 VDB % Inhibition for FC(F)(F)Oc1ccc(-c2ccc3nnc(Oc4ccccc4)n3c2)cc1 [D] : what is it?
Output: 49.35

Input: Reported hNav1.3 VDB % Inhibition for CS(=O)(=O)Nc1ccc(-c2ccc(Cl)c(C(F)(F)F)c2)c(Cl)c1 [G] : what is it?
Output: 4.01

Input: Reported hNav1.3 VDB % Inhibition for FC(F)(F)Oc1ccc(-c2ccc3nnc(C(F)(F)F)n3c2)cc1 [Compound A] : what is it?
Output: 65.42

Input: Reported hNav1.3 VDB % Inhibition for CC(C)(C)OC(=O)N[C@H](Cc1ccccc1)C(=O)N[C@@H]1CCc2ccccc2N(CC(F)(F)F)C1 [E] : what is it?
Output: 23.18

Input: Reported hNav1.3 VDB % Inhibition for O=C(NCc1ccc(C(F)(F)F)c(Cl)c1)c1ccc(S(=O)(=O)Nc2ncc(Cl)s2)cc1 [C] : what is it?
Output: 92.16
